We begin with a simple list: items and their reported pIC50.
method_description: Inhibition of mTORC1-mediated 4EBP1-phosphorylation in human U87 cells
Assay type: cell-based, U-87MG ATCC
assay_setup: Homo sapiens, U-87 MG; read-out: IC50
pIC50: −log10 of the molar value.

| molecule | pIC50 |
| --- | --- |
| Cc1nc(Nc2cnccn2)cc(-c2c(Nc3ccn[nH]3)nc3cccnn23)n1 | 7.18 |
| COc1cnnc(Nc2cc(-c3c(Nc4cc[nH]n4)nc4cccnn34)nc(C)n2)c1 | 7.07 |
| Cc1nc(N)nc(-c2c(Nc3cc[nH]n3)nc3ccc(-c4ccccc4C)cn23)n1 | 6.19 |
| Cc1nc(N)nc(-c2c(Nc3cc[nH]n3)nc3ccc(-c4cnccc4C)cn23)n1 | 7.31 |
| CC(=O)Nc1cccc(-c2ccc3nc(Nc4cc[nH]n4)c(-c4nc(C)nc(N)n4)n3c2)c1 | 6.94 |
| Cc1cc(-c2ccc3nc(Nc4cc[nH]n4)c(-c4nc(C)nc(N)n4)n3c2)ccn1 | 6.65 |
| Cc1nc(N)nc(-c2c(Nc3cc[nH]n3)nc3ccc(-c4ccncc4)cn23)n1 | 6.49 |
| CC(=O)Nc1cc(-c2c(Nc3ccn(C)n3)nc3ccc(-c4cccnc4C)cn23)nc(C)n1 | 6.64 |
| Cc1nc(N)nc(-c2c(Nc3ccn[nH]3)nc3ccc(-c4cncn4C)cn23)n1 | 6.56 |
| Cc1nc(N)cc(-c2c(Nc3cc[nH]n3)nc3ccccn23)n1 | 6.29 |
| Cc1nc(Nc2cccnn2)cc(-c2c(Nc3ccn[nH]3)nc3cccnn23)n1 | 6.56 |
| Cc1nc(N)nc(-c2c(Nc3ccn[nH]3)nc3ccc(-c4cncnc4C)cn23)n1 | 7.24 |
| Cc1nc(N)nc(-c2c(Nc3cc[nH]n3)nc3ccccn23)n1 | 6.79 |
| CC(=O)Nc1cc(-c2c(Nc3cc[nH]n3)nc3ccccn23)nc(C)n1 | 7.22 |
| Cc1cc(-c2ccc3nc(Nc4cc[nH]n4)c(-c4nc(C)nc(N)n4)n3c2)on1 | 7.14 |
| Cc1nc(N)nc(-c2c(Nc3ccn[nH]3)nc3ccc(-c4cnn(C5CC5)c4)cn23)n1 | 7.24 |
| Cc1nccc(-c2c(Nc3ccn[nH]3)nc3cccnn23)n1 | 5.66 |
| Cc1nc(Nc2ccc(N3CCOCC3)nn2)cc(-c2c(Nc3ccn[nH]3)nc3cccnn23)n1 | 6.51 |
| Cc1nc(N)nc(-c2c(Nc3cc[nH]n3)nc3ccc(-c4cncnc4)cn23)n1 | 7.03 |
| CC(=O)Nc1cc(-c2c(Nc3cc[nH]n3)nc3cccnn23)nc(C)n1 | 7.35 |
| COc1ncccc1-c1ccc2nc(Nc3ccn[nH]3)c(-c3nc(C)nc(N)n3)n2c1 | 6.29 |
| CC(=O)Nc1cc(-c2c(Nc3ccn(C)n3)nc3ccccn23)nc(C)n1 | 6.03 |
| CNc1cc(-c2c(Nc3cc[nH]n3)nc3cccnn23)nc(C)n1 | 6.15 |
| CC(=O)Nc1cc(-c2c(Nc3ccn(C)n3)nc3ccc(-c4cnco4)cn23)nc(C)n1 | 6.46 |
| Cc1nc(N)nc(-c2c(Nc3cc[nH]n3)nc3ccc(-c4cccnc4)cn23)n1 | 7.00 |
| Cc1nc(Nc2cnn(C3CCOC3)c2)cc(-c2c(Nc3ccn[nH]3)nc3cccnn23)n1 (configuration not stated) | 6.84 |
| Cc1nc(N)nc(-c2c(Nc3ccn[nH]3)nc3ccc(-c4cccc(F)c4)cn23)n1 | 6.04 |
